Species on record: Rattus norvegicus
measurement-description: DrugMatrix - Regimen: Daily Repeat
Type: toxicity, organism-based, Sprague-Dawley
Parameters: regimen Daily Repeat, gender Male, age 6-8 weeks
conditions-used: in vivo, po, 0 mg/kg, 120 h, tissue Plasma, route oral GAVAGE, dose level Control, time 5 day, […]
quantity-measured: ASPARTATE AMINOTRANSFERASE (u/L)

molecule: COc1cc(N)c(Cl)cc1C(=O)NC1CCN(CCCOc2ccc(F)cc2)CC1OC (centres undefined) [CISAPRIDE]
quantity-measured: ASPARTATE AMINOTRANSFERASE
readout-number: 83.33

molecule: CO[C@H]1/C=C/O[C@@]2(C)Oc3c(C)c(O)c4c(O)c(c(/C=N/N5CCN(C6CCCC6)CC5)c(O)c4c3C2=O)NC(=O)/C(C)=C\C=C\[C@H](C)[C@H](O)[C@@H](C)[C@@H](O)[C@@H](C)[C@H](OC(C)=O)[C@@H]1C [RIFAPENTINE]
quantity-measured: ASPARTATE AMINOTRANSFERASE
readout-number: 99.67

molecule: Clc1ccc(COC(Cn2ccnc2)c2ccc(Cl)cc2Cl)cc1 (centres undefined) [ECONAZOLE]
quantity-measured: ASPARTATE AMINOTRANSFERASE
readout-number: 81.33

molecule: CC(C)(C)NC(=O)[C@H]1CC[C@H]2[C@@H]3CC[C@H]4NC(=O)C=C[C@]4(C)[C@H]3CC[C@]12C [FINASTERIDE]
quantity-measured: ASPARTATE AMINOTRANSFERASE
readout-number: 89.67

* * *

Species: Rattus norvegicus
measurement-description: DrugMatrix - Regimen: Daily Repeat
Assay type: toxicity, organism-based, Sprague-Dawley
Parameters: regimen Daily Repeat, gender Male, age 6-8 weeks
conditions-used: in vivo, po, 2000 mg/kg, 120 h, tissue Plasma, route oral GAVAGE, dose level High, time 5 day, vehicle .5 % CMC
quantity-measured: CREATININE

compound: CC1(C)S[C@@H]2[C@H](NC(=O)[C@H](N)c3ccccc3)C(=O)N2[C@H]1C(=O)O
quantity-measured: CREATININE
result: 0.2 mg/dL
//
compound: O=C1Nc2ccc(Cl)cc2C(c2ccccc2Cl)=NC1O (stereo unspecified)
quantity-measured: CREATININE
result: 0.18 mg/dL
//
compound: CN(C/C=C/C#CC(C)(C)C)Cc1cccc2ccccc12
quantity-measured: CREATININE
result: 0.53 mg/dL
//
compound: NC1CCN(c2nc3c(cc2F)c(=O)c(C(=O)O)cn3-c2ccc(F)cc2F)C1 (stereo unspecified)
quantity-measured: CREATININE
result: 0.5 mg/dL
//
compound: CN/C(=N/CCSCc1nc[nH]c1C)NC#N
quantity-measured: CREATININE
result: 0.3 mg/dL
//
compound: COc1cc2nc(N3CCN(C(=O)c4ccco4)CC3)nc(N)c2cc1OC
quantity-measured: CREATININE
result: 0.19 mg/dL

* * *

Here the recorded TOTAL BILIRUBIN is given for each entry.
Organism: Rattus norvegicus
measurement-description: DrugMatrix - Regimen: Daily Repeat
Assay type: toxicity, organism-based, Sprague-Dawley
Design: regimen Daily Repeat, gender Male, age 6-8 weeks
conditions-used: in vivo, po, 0 mg/kg, 72 h, tissue Plasma, route oral GAVAGE, dose level Control, time 3 day, […]
quantity-measured: TOTAL BILIRUBIN (mg/dL)

compound: CC(C)(C)NC(=O)[C@H]1CC[C@H]2[C@@H]3CC[C@H]4NC(=O)C=C[C@]4(C)[C@H]3CC[C@]12C [FINASTERIDE]
quantity-measured: TOTAL BILIRUBIN
readout-number: 0.2

compound: CO[C@H]1/C=C/O[C@@]2(C)Oc3c(C)c(O)c4c(O)c(c(/C=N/N5CCN(C6CCCC6)CC5)c(O)c4c3C2=O)NC(=O)/C(C)=C\C=C\[C@H](C)[C@H](O)[C@@H](C)[C@@H](O)[C@@H](C)[C@H](OC(C)=O)[C@@H]1C [RIFAPENTINE]
quantity-measured: TOTAL BILIRUBIN
readout-number: 0.23

compound: COc1cc([C@@H]2c3cc4c(cc3[C@@H](O[C@@H]3O[C@@H]5CO[C@@H](C)O[C@H]5[C@H](O)[C@H]3O)[C@H]3COC(=O)[C@H]23)OCO4)cc(OC)c1O [ETOPOSIDE]
quantity-measured: TOTAL BILIRUBIN
readout-number: 0.2

compound: C[C@@H]1C[C@H]2[C@@H]3CCC4=CC(=O)C=C[C@]4(C)[C@@]3(F)[C@@H](O)C[C@]2(C)[C@@]1(O)C(=O)CO [DEXAMETHASONE]
quantity-measured: TOTAL BILIRUBIN
readout-number: 0.2

compound: COc1cc(N)c(Cl)cc1C(=O)NC1CCN(CCCOc2ccc(F)cc2)CC1OC (stereo unspecified) [CISAPRIDE]
quantity-measured: TOTAL BILIRUBIN
readout-number: 0.13

compound: Clc1ccc(COC(Cn2ccnc2)c2ccc(Cl)cc2Cl)cc1 (stereo unspecified) [ECONAZOLE]
quantity-measured: TOTAL BILIRUBIN
readout-number: 0.27
